Experimental System: USP25 (Homo sapiens, UniProt Q9UHP3)
Construct: purchased R&D Systems
Sequence (Q9UHP3 1-1055): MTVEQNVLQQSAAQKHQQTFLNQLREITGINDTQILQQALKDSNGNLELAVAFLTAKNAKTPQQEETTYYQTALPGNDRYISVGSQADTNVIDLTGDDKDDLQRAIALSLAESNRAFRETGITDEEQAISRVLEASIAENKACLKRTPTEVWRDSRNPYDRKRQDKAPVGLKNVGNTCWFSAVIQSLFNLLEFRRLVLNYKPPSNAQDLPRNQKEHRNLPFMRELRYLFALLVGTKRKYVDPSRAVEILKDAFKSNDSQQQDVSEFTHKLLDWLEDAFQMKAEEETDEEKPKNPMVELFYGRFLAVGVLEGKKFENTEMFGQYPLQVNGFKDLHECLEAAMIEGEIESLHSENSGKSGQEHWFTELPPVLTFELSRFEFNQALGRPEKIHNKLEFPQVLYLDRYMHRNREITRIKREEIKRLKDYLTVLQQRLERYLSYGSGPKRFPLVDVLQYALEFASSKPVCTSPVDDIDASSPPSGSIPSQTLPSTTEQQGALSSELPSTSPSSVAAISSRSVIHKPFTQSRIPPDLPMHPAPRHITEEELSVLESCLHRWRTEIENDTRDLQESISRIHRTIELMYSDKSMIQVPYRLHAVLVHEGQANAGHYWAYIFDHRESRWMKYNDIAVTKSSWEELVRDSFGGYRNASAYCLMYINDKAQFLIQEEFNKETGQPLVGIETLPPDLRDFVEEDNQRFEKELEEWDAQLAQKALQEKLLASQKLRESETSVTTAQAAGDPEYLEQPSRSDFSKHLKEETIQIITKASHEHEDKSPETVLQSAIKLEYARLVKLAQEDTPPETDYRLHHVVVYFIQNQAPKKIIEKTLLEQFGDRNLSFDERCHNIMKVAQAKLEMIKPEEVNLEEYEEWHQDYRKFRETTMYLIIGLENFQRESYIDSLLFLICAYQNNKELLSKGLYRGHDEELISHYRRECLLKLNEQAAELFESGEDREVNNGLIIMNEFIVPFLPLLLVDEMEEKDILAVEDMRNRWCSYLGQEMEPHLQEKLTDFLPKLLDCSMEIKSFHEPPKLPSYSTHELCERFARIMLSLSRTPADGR
Test Method Notes: USP25 activity measured using ubiquitin-rhodamine 110 method
Format: biochemical
Experimental Parameters: purified USP25 15 nM, ubiquitin-rhodamine 110 125 nM, 30 min preincubation; read-out: Inhibitory activity against USP25 (IC50)

Compound Structure | IC50
CNc1c(C(=O)NCCc2ccc(N3C[C@H]4CC[C@@H](C3)N4)cc2)sc2nc(C)c(C)cc12 | 1 to 5 µM
CNc1c(C(=O)NCCc2ccc(N3C[C@H]4CC[C@@H](C3)N4)c(F)c2F)sc2nc(C)ccc12 | 5 to 10 µM
CNc1c(C(=O)NCCc2ccc(N3C[C@H]4CC[C@@H](C3)N4)cc2F)sc2nc(Cl)cnc12 | > 10 µM
CCc1ccc2c(NC)c(C(=O)NCCc3c[nH]c4ccccc34)sc2n1 | 1 to 5 µM
